assay.remarks: qHTS assay for identifying genotoxic compounds that show differential cytotoxicity against isogenic chicken DT40 cell lines with known DNA damage response pathways - wild type cell line (AID 743012); further: nearly all actives have a fitted effect of over 60% in size
test.parameters: DT40 wild type chicken cells viability, CellTiter-Glo, 40 h; series mostly up to 68.4 µM
Inconclusive results are not listed. Activity calls are given as the source filed them. The call rests on the fitted dose curve; in most records, active means well fitted cell-killing curve with a large enough effect in the repeat runs; inconclusive means weak or mixed curves, or effect the other way; inactive means no such curve, though single readings can be large or run the other way.
Tick one outcome: yes for active, no for inactive

Solved cases (6 shown):
{"columns": ["molecule", "assigned.label"],
 "data": [
  ["CC1CCC2CC1C2(C)C (stereo unspecified)", "no"],
  ["COS(C)(=O)=O", "no"],
  ["CSCCC=O", "no"],
  ["O=C(O)c1cc(=O)c2c(OCC(O)COc3cccc4oc(C(=O)O)cc(=O)c34)cccc2o1", "no"],
  ["Cc1ccc2oc(=O)ccc2c1", "no"],
  ["Cc1ccc(S(N)(=O)=O)cc1", "no"]
]}

Prompt: What classification did CCCCCCCCC/C=C/CC1CC(=O)OC1=O (stereo unspecified) end up with in this test?
Response: no

Prompt: Dear colleague, could you share the recorded outcome for CCCCC(CC)COC(=O)CS (stereo unspecified) when you have a moment?
Response: no

Prompt: Given CC(C)CC(=O)CC(C)C , state the outcome it received in this test.
Response: no

Prompt: State the result this test recorded for CN(C)CCC(c1ccccc1)c1ccccn1 (stereo unspecified) .
Response: no

Prompt: Returns: the outcome recorded for CCCCC(CC)COC(=O)C(C#N)=C(c1ccccc1)c1ccccc1 (stereo unspecified) in this assay.
Response: yes

Prompt: Entry C#CCN(C)Cc1ccccc1 : call = ?
Response: no

----------
system.under.test: Cytochrome P450 2C9 (Homo sapiens) (UniProt P11712)
Sequence (P11712 whole entry, looked up): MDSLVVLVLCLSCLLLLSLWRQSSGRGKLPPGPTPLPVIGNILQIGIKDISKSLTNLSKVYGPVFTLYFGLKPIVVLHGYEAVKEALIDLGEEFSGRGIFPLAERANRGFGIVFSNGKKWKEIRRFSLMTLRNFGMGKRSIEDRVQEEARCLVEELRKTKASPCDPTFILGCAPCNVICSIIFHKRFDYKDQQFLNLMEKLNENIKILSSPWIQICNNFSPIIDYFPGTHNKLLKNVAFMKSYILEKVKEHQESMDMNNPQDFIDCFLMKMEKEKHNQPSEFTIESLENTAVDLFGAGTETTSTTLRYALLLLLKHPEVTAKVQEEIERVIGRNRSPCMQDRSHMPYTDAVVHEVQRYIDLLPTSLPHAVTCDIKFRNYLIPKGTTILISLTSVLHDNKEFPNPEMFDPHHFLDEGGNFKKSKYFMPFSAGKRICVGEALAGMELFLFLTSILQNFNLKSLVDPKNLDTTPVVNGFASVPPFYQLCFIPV
assay.remarks: Cytochrome P450 Family 2 Subfamily C Member 9 (CYP2C9) small molecule antagonists: luciferase reporter qHTS assay (AID 1671198); further: on the % scale 0 is the no-effect control and ±100 the full control effect; nearly all actives have a fitted effect of over 50% in size
test.parameters: P450-Glo CYP2C9 enzyme assay, luciferin luminescence; series mostly up to 115 µM
Results filed as inconclusive are left out. Active and inactive are the calls of the source. The call rests on the fitted dose curve; in most records, active means well fitted inhibition curve with a large enough effect in the repeat runs; inconclusive means weak or mixed curves; inactive means no such curve, though single readings can be large or run the other way.
Result category, one only: 1 = active, -1 = inactive

The following compounds have reported results that may help.
{"columns": ["compound", "assigned.label"],
 "data": [
  ["CCCCCCCCCCCCc1ccccc1", -1],
  ["O=C(O)c1cc(C(=O)O)cc(S(=O)(=O)O)c1", -1],
  ["ON=C1CCCCC1", -1]
]}

Prompt: Please state the recorded outcome for this compound: CC1=CCC2CC1C2(C)C (stereo unspecified)
Response: -1

Prompt: Which outcome was assigned to CN(C)CCOCCN(C)C in this test?
Response: -1

----------
assay.remarks: qHTS RealTime-Glo MT Cell Viability Assay in HepG2 cells - 16 hour (AID 1224885); further: on the % scale 0 is the no-effect control and ±100 the full control effect; nearly all actives have a fitted effect of over 50% in size
test.parameters: RealTime-Glo luminescence; series mostly up to 76.8 µM
Results filed as inconclusive are left out. Activity calls are given as the source filed them. Calls come from the whole dose curve; as a rule, active = well fitted cell-killing curve with a large enough effect in the repeat runs; inconclusive = weak or mixed curves; inactive = flat fitted curve, though single readings scatter.
property.measured: outcome

Some molecules with recorded outcome:
{"columns": ["molecule", "property.measured", "observed.result"],
 "data": [
  ["O=[N+]([O-])c1ccc(/C=C/c2ccc([N+](=O)[O-])cc2S(=O)(=O)O)c(S(=O)(=O)O)c1", "outcome", "inactive"],
  ["CCCCCCCCCCCCc1ccccc1", "outcome", "inactive"],
  ["CC(c1cc2ccccc2s1)N(O)C(N)=O (stereo unspecified)", "outcome", "inactive"],
  ["Cc1ccc(S(N)(=O)=O)cc1", "outcome", "inactive"],
  ["CCN(CC)c1ccc(C(=O)c2ccccc2C(=O)O)c(O)c1", "outcome", "inactive"],
  ["FC(F)(F)c1ccc(Cl)c(Cl)c1", "outcome", "inactive"],
  ["COCCCOc1ccnc(CS(=O)c2nc3ccccc3[nH]2)c1C (stereo unspecified)", "outcome", "inactive"],
  ["C=C(C)C(=O)Nc1ccc(Cl)c(Cl)c1", "outcome", "inactive"],
  ["OCc1cccnc1", "outcome", "inactive"],
  ["O=C(O)c1cc(O)c(O)c(O)c1", "outcome", "inactive"]
]}

Prompt: I have this molecule here, CN(C)CCCN , and I need its recorded outcome.
Response: inactive

Prompt: Give its outcome value. Item: O=C(O)c1ccccc1C(c1ccc(O)cc1)c1ccc(O)cc1
Response: inactive

Prompt: Using the record for CC(C)(N)CO , report its outcome.
Response: inactive

----------
assay.remarks: A CellTox Green Cytotoxicity Assay to monitor cytotoxicity in HEK293 cells - 24 hour (AID 1224875); further: on the % scale 0 is the no-effect control and ±100 the full control effect; nearly all actives have a fitted effect of over 45% in size
test.parameters: CellTox Green fluorescence; series mostly up to 76.8 µM
Records with an inconclusive call do not appear. Active and inactive are the calls of the source. The call rests on the fitted dose curve; in most records, active means well fitted activation curve with a large enough effect in the repeat runs; inconclusive means weak or mixed curves; inactive means flat fitted curve, though single readings scatter.
property.measured: outcome

{"columns": ["compound", "observed.result"],
 "data": [
  ["CCCCCCCCC/C=C/CC1CC(=O)OC1=O (stereo not drawn)", "inactive"],
  ["CCC(O)OCCCOC (stereo not drawn)", "inactive"],
  ["O=c1[nH]c(=O)n([C@H]2C[C@H](O)[C@@H](CO)O2)cc1Br", "inactive"],
  ["O=C(CC(C(=O)OC1CCCCC1)S(=O)(=O)O)OC1CCCCC1 (stereo not drawn)", "inactive"],
  ["c1ccc2scnc2c1", "inactive"],
  ["O=[N+]([O-])c1ccc(/C=C/c2ccc([N+](=O)[O-])cc2S(=O)(=O)O)c(S(=O)(=O)O)c1", "inactive"]
]}

Prompt: Look at this compound and give its reported outcome. CC1=C(C)S(=O)(=O)CCS1(=O)=O
Response: inactive

Prompt: I would be grateful if you could share the reported outcome for FC(F)(F)c1ccc(Cl)c(Cl)c1 .
Response: inactive

----------
assay.remarks: qHTS assay to identify small molecule antagonists of the estrogen related receptor (ERR) signaling pathway from Tox21 library - cell viability counter screen (AID 1224834); further: on the % scale 0 is the no-effect control and ±100 the full control effect; nearly all actives have a fitted effect of over 30% in size
test.parameters: ERR reporter cells viability, CellTiter-Fluor, 17.5 h; series mostly up to 92.4 µM
Records with an inconclusive call do not appear. The source made the active and inactive calls. Calls come from the whole dose curve; as a rule, active = well fitted cell-killing curve with a large enough effect in the repeat runs; inconclusive = weak or mixed curves; inactive = flat fitted curve, though single readings scatter.
property.measured: viability change, negative = cytotoxic

{"columns": ["record.smiles", "viability change, negative = cytotoxic"],
 "data": [
  ["COc1ccc2cc([C@H](C)C(=O)O)ccc2c1", "inactive"],
  ["c1ccc2scnc2c1", "inactive"],
  ["C=C(C)C(=O)OCCOCCOCCOC(=O)C(=C)C", "inactive"],
  ["C[Si](O[Si](C)(C)C)O[Si](C)(C)C", "inactive"],
  ["Cc1cccc(O)c1", "inactive"]
]}

Prompt: What does the record list as viability change, negative = cytotoxic for CC(=O)CC(=O)Nc1ccccc1 ?
Response: inactive

Prompt: Returns the measured viability change, negative = cytotoxic for the input molecule. Input: O=C(O)[C@H](O)[C@@H](O)[C@H](O)[C@H](O)CO
Response: inactive

----------
assay.remarks: qHTS assay to identify small molecule antagonists of the estrogen related receptor (ERR) signaling pathway from Tox21 library (AID 1224848); further: on the % scale 0 is the no-effect control and ±100 the full control effect; nearly all actives have a fitted effect of over 50% in size
test.parameters: ERR reporter cell line, luciferase antagonist mode, 18 h; series mostly up to 92.4 µM
Records with an inconclusive call do not appear. The source made the active and inactive calls. The call rests on the fitted dose curve; in most records, active means well fitted inhibition curve with a large enough effect in the repeat runs; inconclusive means weak or mixed curves; inactive means no such curve, though single readings can be large or run the other way.
// classify into active, inactive

Example entries and their recorded answers appear below.
{"columns": ["molecule", "assigned.label"],
 "data": [
  ["COCCCOc1ccnc(CS(=O)c2nc3ccccc3[nH]2)c1C (centres undefined)", "inactive"],
  ["CC1=C(C)S(=O)(=O)CCS1(=O)=O", "inactive"],
  ["O=C(O)c1ccccc1C(c1ccc(O)cc1)c1ccc(O)cc1", "inactive"],
  ["CN(C)CCOCCN(C)C", "inactive"],
  ["COS(C)(=O)=O", "inactive"]
]}

Prompt: Lab log entry: Nc1cc([N+](=O)[O-])ccc1O — outcome as called in the assay?
Response: inactive

Prompt: Record lookup: outcome of this test for CCCCCCCCCCCCc1ccccc1 ?
Response: inactive

Prompt: How was CCc1cccc(C)c1N classified in this test?
Response: inactive

----------
assay.remarks: qHTS assay to identify small molecule agonists of the TGF-beta/Smad signaling pathway (AID 1346859); further: on the % scale 0 is the no-effect control and ±100 the full control effect
test.parameters: SBE-bla HEK293T, TGF-beta/Smad beta-lactamase reporter, 5 h; series mostly up to 76.8 µM
Inconclusive results are not listed. The source made the active and inactive calls. Calls come from the whole dose curve; as a rule, active = well fitted activation curve with a large enough effect in the signal ratio in the repeat runs (not every such curve was filed as active); inconclusive = weak or mixed curves; inactive = flat fitted curve, though single readings scatter; the % refers to the signal ratio.

{"columns": ["compound", "outcome"],
 "data": [
  ["CCc1cccc(C)c1N", "inactive"],
  ["CCCCCCCCCCCCS", "inactive"],
  ["CN(C)CCC(c1ccccc1)c1ccccn1 (stereo not drawn)", "inactive"]
]}

----------
assay.remarks: qHTS assay to test for compound auto fluorescence at 590 nm (red) in HepG2 cells (AID 720674); further: on the % scale 0 is the no-effect control and ±100 the full control effect
test.parameters: HepG2 autofluorescence, red 540/590 nm, 1 h; series mostly up to 91.3 µM
Active and inactive are the calls of the source. Calls come from the whole dose curve; as a rule, active = well fitted curve in the direction sought with a large enough effect in the repeat runs; inconclusive = weak or mixed curves; inactive = flat fitted curve, though single readings scatter.
property.measured: outcome

{"columns": ["compound", "outcome"],
 "data": [
  ["O=C1CCC(N2C(=O)c3ccccc3C2=O)C(=O)N1 (configuration not stated)", "inactive"],
  ["CC[C@H](C)C(=O)O[C@H]1C[C@@H](C)C=C2C=C[C@H](C)[C@H](CC[C@@H]3C[C@@H](O)CC(=O)O3)[C@H]21", "inactive"],
  ["CC(C)CC(=O)CC(C)C", "inactive"],
  ["CN(C)CCOCCN(C)C", "inactive"],
  ["C=CCOC(=O)c1ccccc1C(=O)OCC=C", "inactive"]
]}

Prompt: Need outcome, item CCCCCC1=CCCC1=O
Response: inactive

Prompt: Look at this compound and give its reported outcome. CCCCCCCCCCCCCCO
Response: inactive

Prompt: Record request: outcome value, item O=C(O)CC(C(=O)O)C(CC(=O)O)C(=O)O (configuration not stated)
Response: inactive

Prompt: Any idea what outcome was measured for COCCCOc1ccnc(CS(=O)c2nc3ccccc3[nH]2)c1C (configuration not stated) ?
Response: inactive

Prompt: For Cc1ccc(S(N)(=O)=O)cc1 , what is its reported outcome?
Response: inactive
